Origin of measurements: PubChem BioAssay AID449762

assay: M. tuberculosis growth inhibition, HTS (AID 449762);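 also: bacterial growth assessed after seven days of incubation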; conditions: M. tuberculosis H37Rv growth inhibition, 7H9 media; at 25 µM; stronger effect = higher value
Out of some 330,000 compounds screened, about 1,900 (0.58%) were called active. Another 4% or so got no clear call; they are omitted. The list is a sample of the results. Potency and affinity values are given separately.
Property: inhibition (%)
Entry rule: numbers only, all in %.

Prompt line: inhibition for OC(CN1CCN(c2ccccc2)CC1)Cn1c2ccccc2c2ccccc21 (stereo unspecified) ?
Response line: 14.7

Prompt line: inhibition for "Cc1cc(C(=O)N/N=C2\CC(=O)CC(C)(C)C2)c2ccccc2n1" ?
Response line: 5.98

Prompt line: inhibition for "Oc1cccc(/C=N/NC(=S)NCCN2CCOCC2)c1O" ?
Response line: -1.62

Prompt line: inhibition for O=C(C1CCC(CNc2c(N3CCCCC3)c(=O)c2=O)CC1)N1CCCC1 (stereo unspecified) ?
Response line: -1.43

Prompt line: inhibition for CC1CCN(C(=O)C2CCC(CNc3c(N4CCCCC4)c(=O)c3=O)CC2)CC1 (stereo unspecified) ?
Response line: -6.49

Prompt line: inhibition for "Cc1ccc(NC(=O)/C(C#N)=N/Nc2ccc(C(=O)O)cc2)c(C)c1" ?
Response line: -9.1

Prompt line: inhibition for "CC(C)N(CC(N)=O)c1ccc(S(=O)(=O)N2CCCC2)cn1" ?
Response line: -5.77

Prompt line: inhibition for CN1CCN(CC(O)Cn2c3ccccc3c3ccccc32)CC1 (stereo unspecified) ?
Response line: 6.36

Prompt line: inhibition for "CCn1c(C)c(C)c2cc(C(=O)NCCCN3CCCC3)ccc21" ?
Response line: -0.8

Prompt line: inhibition for COc1ccc(N(C(C)C(=O)NN=C2CCCC2)S(C)(=O)=O)cc1 (stereo unspecified) ?
Response line: -2.55

Prompt line: inhibition for "COc1ccc(NC(=O)C2CCN(Cc3cnn(-c4ccccc4)c3-n3cccc3)CC2)cc1OC" ?
Response line: -3.38
